test system: Pyrenophora teres; assay: In vivo preventive test on Pyrenophora teres (barley), Example F; conditions: 500 ppm of active ingredient, evaluated 7-9 days after inoculation
EXPERIMENTAL_READOUT: Efficacy
# number then unit; no other words

The compound listed as Cn1nc(C(F)F)c(C(=O)N(C[Si](C)(C)c2ccc3ccccc3c2)C2CC2)c1F has a reported Efficacy of 100%

###

test system: Pyrenophora teres; assay: In vivo preventive test on Pyrenophora teres (barley), Example F; conditions: 500 ppm of active ingredient, evaluated 7-9 days after inoculation
EXPERIMENTAL_READOUT: Efficacy (%)
// units = %; emit number, no label

MOLECULE: Cn1nc(C(F)F)c(C(=O)N(C[Si](C)(C)c2cc(Cl)cc(Cl)c2)C2CC2)c1F [Example 52]
TESTED_ON: Pyrenophora teres
EXPERIMENTAL_READOUT: Efficacy
OBSERVED_RESULT: 100

The molecule listed as CCc1nn(C)c(F)c1C(=O)N(C[Si](C)(C)c1cc(Cl)cc(Cl)c1)C1CC1 [Example 49] has a reported Efficacy of 100

The molecule listed as Cc1nn(C)c(F)c1C(=O)N(C[Si](C)(C)c1ccc(Cl)cc1Cl)C1CC1 [Example 39] has a reported Efficacy of 100

The molecule listed as Cc1cc(C(=O)N(C[Si](C)(C)c2ccc(Cl)cc2Cl)C2CC2)c(C)o1 [Example 40] has a reported Efficacy of 95

The molecule listed as Cc1cc(C(=O)N(C[Si](C)(C)c2ccccc2Cl)C2CC2)c(C)o1 [Example 22] has a reported Efficacy of 80

###

Listing: logP of selected compounds
Experiment: log P by HPLC on reversed-phase column (C18), EEC Directive 79/831 Annex V.A8
Type: physicochemical
Settings: 40° C., 0.1% aqueous formic acid and acetonitrile, linear gradient 10% to 90% acetonitrile
Experimental: In table 1, the log P values were determined in accordance with EEC Directive 79/831 Annex V.A8 by HPLC (High Performance Liquid Chromatography) on a reversed-phase column (C18), using the method described below: Temperature: 40° C.; Mobile phases: 0.1% aqueous formic acid and acetonitrile; linear gradient from 10% acetonitrile to 90% acetonitrile. […]
Give only the figure.

Take a look at these entries with their results.
RECORD_SMILES: Cn1cc(C(=O)NC[Si](C)(C)c2cc(Cl)cc(Cl)c2)c(C(F)F)c1
OBSERVED_RESULT: 4.11

RECORD_SMILES: Cn1nc(C(F)F)c(C(=O)NC[Si](C)(C)c2ccccc2Cl)c1Cl
OBSERVED_RESULT: 3.69

RECORD_SMILES: Cc1cc(C(=O)NC[Si](C)(C)c2cc(Cl)cc(Cl)c2)c(C)o1
OBSERVED_RESULT: 4.54

Please turn your attention to the following entry.
The compound listed as Cc1cc(C(=O)N(C[Si](C)(C)Cc2cccc(Cl)c2)C2CC2)c(C)o1 has a reported logP of 5.11

###

Listing: Efficacy of selected compounds
tested on: Pyrenophora teres; assay: In vivo preventive test on Pyrenophora teres (barley), Example F; conditions: 500 ppm of active ingredient, evaluated 7-9 days after inoculation
# number then unit; no other words

Entry Cn1cc(C(=O)N(C[Si](C)(C)Cc2ccccc2Cl)C2CC2)c(C(F)F)c1 ; assay system Pyrenophora teres; Efficacy recorded at 70%

Entry Cn1nc(C(F)F)c(C(=O)NC[Si](C)(C)c2ccccc2)c1F ; assay system Pyrenophora teres; Efficacy recorded at 100%

Entry Cn1nc(C(F)F)c(C(=O)N(C[Si](C)(C)c2cccc(Cl)c2)C2CC2)c1F ; assay system Pyrenophora teres; Efficacy recorded at 100%

Entry Cn1nc(C(F)F)c(C(=O)NC[Si](C)(C)c2ccc(Cl)cc2Cl)c1F ; assay system Pyrenophora teres; Efficacy recorded at 100%

Entry Cn1cc(C(=O)N(C[Si](C)(C)c2cc(Cl)cc(Cl)c2)C2CC2)c(C(F)F)n1 ; assay system Pyrenophora teres; Efficacy recorded at 100%

Entry CN(C[Si](C)(C)c1ccccc1)C(=O)c1c(C(F)F)nn(C)c1F ; assay system Pyrenophora teres; Efficacy recorded at 100%
